Test system: K-562 leukemia
Test: NCI tumour cell line growth inhibition, 48 h; in the data active means GI50 below about 0.43 µM; inactive means the rest
Mark one answer only. Choices: TRUE = active, FALSE = inactive

Recorded results for 2 molecules are shown here.
{"molecule": "COc1cc2cc(C(=O)N3CC(CCl)c4c3cc(NC(=O)C(C)(C)c3ccccc3[N+](=O)[O-])c3ccccc43)[nH]c2c(OC)c1OC (stereo not given)", "category label": "FALSE"}
{"molecule": "CC12CCC=CC1CCC1C2CCC2(C)C(c3ccc(=O)oc3)CCC12O (stereo not given)", "category label": "TRUE"}

Query :: Give the logged outcome of this assay for the following molecule: N#Cc1ncc(/N=C/c2ccc(N(CCCl)CCCl)cc2)s1
Result :: FALSE

Query :: Give the logged outcome of this assay for the following molecule: CCc1ccc(NCc2cc(OC)c(OC)c(OC)c2)cc1
Result :: TRUE

Query :: Give the logged outcome of this assay for the following molecule: N#CSc1ncnc2nc[nH]c12
Result :: FALSE

Query :: Give the logged outcome of this assay for the following molecule: c1ccc2[nH]c(-c3ccc(N4CCN(c5ccc(-c6nc7ccccc7[nH]6)cc5)CC4)cc3)nc2c1
Result :: FALSE

====

Test system: HT29 colon
Test: NCI tumour cell line growth inhibition, 48 h
property label: TGI

Solved cases (4 shown):
{"molecule": "O=C1NC(N2CCOCC2)=N/C1=C\\c1cccs1", "experimental value": "> 100 µM"}
{"molecule": "Cc1c2ccncc2cc2c1sc1ccncc12", "experimental value": "14.5 µM"}
{"molecule": "c1ccc(Nc2nnc(CSc3nc(-c4ccccc4)c(-c4ccccc4)[nH]3)s2)cc1", "experimental value": "30.6 µM"}
{"molecule": "CCCN1C(=O)/C(=c2\\sc3n(c2=O)C2C(NN=3)N(CC)C(=O)N2CC)c2ccccc21 (stereo unspecified)", "experimental value": "12.2 µM"}

Query :: Tell me the measured TGI of COc1cccc(C2=C(c3cn(C)c4ccccc34)C(=O)NC2=O)c1 , please.
Result :: > 25 µM

Query :: Tell me the measured TGI of CC1CC2C(=O)NC(=O)C2c2[nH]c3ccccc3c21 (stereo unspecified) , please.
Result :: > 100 µM

Query :: Tell me the measured TGI of COc1cccc(OC(=O)c2ccccc2Nc2ccnc(C(F)(F)F)c2)c1 , please.
Result :: > 100 µM

Query :: Tell me the measured TGI of COc1cc2c(cc1OC)-c1ccc3cc4c(cc3c1N(CCN1CCCC1)C2)OCO4 , please.
Result :: 1.47 µM

Query :: Tell me the measured TGI of O=C(NO)c1ccc([N+](=O)[O-])cc1 , please.
Result :: > 100 µM

====

System: SF-268 CNS
Test: NCI tumour cell line growth inhibition, 48 h
property label: GI50

{"molecule": "COc1ccc(-c2ccc(-c3ccc(C(=N)N)nc3)s2)cc1", "target or test system": "SF-268 CNS", "property label": "GI50", "experimental value": "1.76 µM"}
{"molecule": "CC(C)(O)c1ccc(N2CCN(c3nnc(Cc4ccccc4)c4ccccc34)CC2)nc1", "target or test system": "SF-268 CNS", "property label": "GI50", "experimental value": "13.8 µM"}

Query :: Tell me the measured GI50 of CC[C@H](Nc1nc(N)nc(C)c1C#N)c1nc2cccc(CN(C)c3ncc(C(=O)NO)cn3)c2c(=O)n1-c1ccccc1 , please.
Result :: 1.09 µM

Query :: Tell me the measured GI50 of COc1ccccc1[N-]C(C1=C([O-])c2ccccc2C1=O)c1ccccc1.COc1ccccc1[N-]C(C1=C([O-])c2ccccc2C1=O)c1ccccc1.[Cu+2] (centres undefined) , please.
Result :: 5.3 µM

Query :: Tell me the measured GI50 of Cc1cc(N2CCCCC2)nc(N(CCNc2ccnc3cc(Cl)ccc23)Cc2ccco2)n1 , please.
Result :: 2.57 µM

Query :: Tell me the measured GI50 of COc1cc2nc(Cl)nc(Nc3cccc(C(=O)/C=C/c4ccccc4)c3)c2cc1OC , please.
Result :: 4.99 µM

Query :: Tell me the measured GI50 of O=S(=O)(c1ccc(NC(=S)NCc2cccnc2)cc1)N1CCCCC1 , please.
Result :: 17.2 µM

Query :: Tell me the measured GI50 of COc1ccc(C(=O)/C=C/c2ccc(Cl)cc2)cc1S(=O)(=O)Nc1c(N)nc(SC)[nH]c1=O , please.
Result :: 2.69 µM

Query :: Tell me the measured GI50 of CN(C)c1ccc2nc3ccc(=[N+](C)C)cc-3oc2c1 , please.
Result :: 1.59 µM

====

Test system: HS 578T breast
Test: NCI tumour cell line growth inhibition, 48 h; in the data active means GI50 below about 0.43 µM; inactive means the rest
Mark one answer only. Choices: active, inactive

{"compound": "COc1cc2c(cc1OC)-c1ccc3cc4c(cc3c1N(CCN1CCCC1)C2)OCO4", "category label": "inactive"}
{"compound": "N#Cc1ncc(/N=C/c2ccc(N(CCCl)CCCl)cc2)s1", "category label": "inactive"}
{"compound": "CCOC(=O)c1c2c(n(CC(C)C)c1C)-c1nc[nH]c1C(=O)C2=O", "category label": "inactive"}

Query :: Give the logged outcome of this assay for the following compound: CCc1ccc(NC(=O)Nc2c[nH]c3ccccc23)cc1
Result :: inactive

Query :: Give the logged outcome of this assay for the following compound: C[C@]12CC[C@H]3[C@@H](CCC4=CC(=O)CC[C@@H]43)[C@@H]1CC[C@@H]2OC(=O)N(CCCl)N=O
Result :: inactive

====

Test system: SK-MEL-5 melanoma
Assay: NCI tumour cell line growth inhibition, 48 h
property label: TGI (µM)
Form entry: value (µM) — number only.

Solved cases (4 shown):
{"molecule": "C[C@@]12C=CC3C/C(=N\\C(N)=S)C=C(CCCC4OCCO4)[C@]3(CC1)C2 (some centres undefined)", "experimental value": 24.8}
{"molecule": "COC(=O)[C@H](Cc1ccccc1)NC(=O)NCCN(CCNC(=O)N[C@@H](Cc1ccccc1)C(=O)OC)C(=O)N[C@@H](Cc1ccccc1)C(=O)OC", "experimental value": 37.4}
{"molecule": "Nc1ncnc2sc(=S)c3c(c12)CCC3", "experimental value": 29.8}
{"molecule": "CC[C@](C)(O)C(=O)O[C@H]1C(=O)O[C@@H]2C[C@H]3C(C)=CC(=O)[C@@H](O)[C@]3(C)[C@H]3[C@@]4(O)OC[C@]32[C@@H]1[C@@H](C)[C@H]4O", "experimental value": 0.136}

Query :: Tell me the measured TGI of CCCC(O)[C@@H](O)c1ccc2c(c1O)C(=O)c1c(OC)cccc1C2=O (some centres undefined) , please.
Result :: 31.2

Query :: Tell me the measured TGI of O=C1C(Cl)=C(N/N=c2/[nH][nH]/c(=N/NC3=C(Cl)C(=O)c4ccccc4C3=O)c3ccccc23)C(=O)c2ccccc21 , please.
Result :: 29.3

Query :: Tell me the measured TGI of C=C1C(=O)OC2CC3(C)C=CC(=O)C(=C)C3CC12 (centres undefined) , please.
Result :: 3.48

Query :: Tell me the measured TGI of CC(C)(O)c1ccc(N2CCN(c3nnc(Cc4ccccc4)c4ccccc34)CC2)nc1 , please.
Result :: 8.64

Query :: Tell me the measured TGI of Fc1ccc2[nH]cc(Cc3c[nH]c4ccc(F)cc34)c2c1 , please.
Result :: 35.3

Query :: Tell me the measured TGI of C[C@]12CC[C@H]3[C@@H](CCC4=CC(=O)CC[C@@H]43)[C@@H]1CC[C@@H]2OC(=O)N(CCCl)N=O , please.
Result :: 16.1

Query :: Tell me the measured TGI of CC1Oc2cc3c(-c4c(O)cc(O)c5c(O)c6c(cc45)OC(C)C(C)C6=O)c(O)cc(O)c3c(O)c2C(=O)C1C (centres undefined) , please.
Result :: 0.461

Query :: Tell me the measured TGI of O=S(=O)([O-])[O-].[Fe+2].c1ccc(/C(=N\Nc2ccccn2)c2ccccn2)cc1 , please.
Result :: 4.43

Query :: Tell me the measured TGI of CC1=CC(=O)c2c(O)cccc2C1=O , please.
Result :: 3.05

Query :: Tell me the measured TGI of Cc1cc(N2CCCCC2)nc(N(CCNc2ccnc3cc(Cl)ccc23)Cc2ccco2)n1 , please.
Result :: 3.07

====

// values below are reported TGI
Test system: A549 NSCLC
Assay: NCI tumour cell line growth inhibition, 48 h

{"compound": "COc1ccc2c(c1)CCC1C2CCC2(C)C1CCC2(O)CNC(=O)CCCCC1CCSS1 (stereo not drawn)", "TGI": "> 100 µM"}
{"compound": "CSc1nnc(CCSc2ccnc3c(C(F)(F)F)cccc23)o1", "TGI": "> 100 µM"}
{"compound": "NCCCCNCCCN1CC1", "TGI": "> 100 µM"}
{"compound": "CCOC(=O)C=C1CCN(C(=O)c2ccccc2)CC1", "TGI": "> 100 µM"}
{"compound": "COc1ccc(/C=C(\\Cl)c2ccc(OC)c(OC)c2)cc1OC", "TGI": "> 100 µM"}

Query :: Tell me the measured TGI of Cc1ccc(C(=O)Nc2ccc(S(=O)(=O)O)c3cc(S(=O)(=O)O)cc(S(=O)(=O)O)c23)cc1NC(=O)c1cccc(N)c1 , please.
Result :: > 100 µM

Query :: Tell me the measured TGI of CCN=C1C=CC(=C(c2ccc(N(C)C)cc2)c2ccc(N(C)C)cc2)c2ccccc21 , please.
Result :: 0.176 µM

Query :: Tell me the measured TGI of CC(C)(C(=O)NN)c1ccccc1 , please.
Result :: > 100 µM
